Test system: T47D
Test: Cytotoxicity against human T47D cells after 3 days by MTT assay
Type: functional, cell-based
Details: 72 h
Consider the following molecules; for each one, report its IC50.
Answers are plain numbers, in µg/mL.

molecule	unit abbrev	IC50
COc1cc([C@@H]2c3cc4c(cc3[C@@H](O[C@@H]3O[C@@H]5CO[C@@H](C)O[C@H]5[C@H](O)[C@H]3O)[C@H]3COC(=O)[C@H]23)OCO4)cc(OC)c1O [ETOPOSIDE]	µg/mL	0.05
CCCCSc1nccc(=O)[nH]1	µg/mL	5

Now, please, on to the next molecule.
Query: For the molecule shown here, O=c1ccnc(SC23CC4CC(CC(C4)C2)C3)[nH]1 , give the reported IC50.
Reply: 32

* * *

Experiment: Cytotoxicity against human HuCCa1 cells after 3 days by MTT assay
Format: functional, cell-based
Conditions: HuCC-A1, 72 h
value kind: IC50

Some solved entries appear below for comparison.
molecule	IC50
O=c1ccnc(SCC2CCCCC2)[nH]1	> 50 µg/mL
O=c1ccnc(SCc2ccccc2)[nH]1	> 50 µg/mL

Can you give me IC50 for all of these, one by one?
1. COc1cc([C@@H]2c3cc4c(cc3[C@@H](O[C@@H]3O[C@@H]5CO[C@@H](C)O[C@H]5[C@H](O)[C@H]3O)[C@H]3COC(=O)[C@H]23)OCO4)cc(OC)c1O [ETOPOSIDE]
2. O=c1ccnc(SC23CC4CC(CC(C4)C2)C3)[nH]1
3. CCCCSc1nccc(=O)[nH]1
4. CCC(C)Sc1nccc(=O)[nH]1 (stereo unspecified)

Reply:
1: 4 µg/mL; 2: > 50 µg/mL; 3: > 50 µg/mL; 4: > 50 µg/mL

* * *

Consider the following molecules; for each one, report its IC50.
Test system: HeLa
Assay: Cytotoxicity against human HeLa cells after 3 days by MTT assay
Format: functional, cell-based
Conditions: 72 h

molecule	IC50
COc1cc([C@@H]2c3cc4c(cc3[C@@H](O[C@@H]3O[C@@H]5CO[C@@H](C)O[C@H]5[C@H](O)[C@H]3O)[C@H]3COC(=O)[C@H]23)OCO4)cc(OC)c1O [ETOPOSIDE]	0.38 µg/mL

Can you give me IC50 for all of these, one by one?
1. O=c1ccnc(SCC2CCCCC2)[nH]1
2. CCCCSc1nccc(=O)[nH]1
3. O=c1ccnc(SC23CC4CC(CC(C4)C2)C3)[nH]1
4. O=c1ccnc(SCc2ccccc2)[nH]1

Reply:
> 50 µg/mL
> 50 µg/mL
> 50 µg/mL
> 50 µg/mL

* * *

Consider the following compounds; for each one, report its inhibition at 128 µg/mL.
System: Streptococcus pyogenes
Test: Antimicrobial activity against Streptococcus pyogenes assessed as growth inhibition at 128 ug/ml by agar dilution method
Assay type: functional
Give bare numbers, in %.

Some solved entries appear below for comparison.
>>> df
                    molecule               value_kind  assay_result
0       CCCCSc1nccc(=O)[nH]1  inhibition at 128 µg/mL            25
1  O=c1ccnc(SCc2ccccc2)[nH]1  inhibition at 128 µg/mL            25
2  O=c1ccnc(SCC2CCCCC2)[nH]1  inhibition at 128 µg/mL           100

Query: For the compound shown here, O=c1ccnc(SC23CC4CC(CC(C4)C2)C3)[nH]1 , give the reported inhibition at 128 µg/mL.
Reply: 25
